Overview of reported pIC50 across a group of compounds:
tested_target: recombinant purified human BTK (Homo sapiens, UniProt Q06187)
Sequence (Q06187 whole entry): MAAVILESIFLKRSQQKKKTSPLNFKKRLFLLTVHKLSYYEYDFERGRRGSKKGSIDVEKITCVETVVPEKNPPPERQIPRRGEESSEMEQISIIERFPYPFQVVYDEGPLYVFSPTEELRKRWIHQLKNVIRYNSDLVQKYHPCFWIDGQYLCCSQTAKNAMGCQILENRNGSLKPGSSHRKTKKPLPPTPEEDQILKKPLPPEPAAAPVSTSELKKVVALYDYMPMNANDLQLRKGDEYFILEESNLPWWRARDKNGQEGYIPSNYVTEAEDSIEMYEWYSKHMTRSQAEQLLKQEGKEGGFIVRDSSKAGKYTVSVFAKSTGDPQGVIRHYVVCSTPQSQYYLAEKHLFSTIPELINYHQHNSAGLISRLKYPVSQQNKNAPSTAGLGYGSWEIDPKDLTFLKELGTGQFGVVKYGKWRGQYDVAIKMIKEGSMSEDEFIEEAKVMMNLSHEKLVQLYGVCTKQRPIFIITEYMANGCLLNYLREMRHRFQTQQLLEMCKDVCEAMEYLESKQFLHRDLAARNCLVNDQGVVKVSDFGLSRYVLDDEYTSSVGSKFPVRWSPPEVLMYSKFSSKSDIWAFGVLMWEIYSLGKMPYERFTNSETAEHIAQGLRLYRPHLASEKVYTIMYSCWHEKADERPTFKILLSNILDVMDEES
experimental_details: In vitro BTK kinase assay on ADP Glo platform
run_parameters: 2 hr room temperature, read-out: In-vitro BTK inhibitory activity: IC50
Schema: pIC50 number; meaning minus log10 of the concentration expressed in molar units.

Check out these entries, answers already filled in.
Exercise: Look up pIC50: C=CC(=O)N1CC2CC(n3nc(-c4ccc5c(c4)oc4ccccc45)c4c(N)ncnc43)CC2C1 (stereo not shown)
Key: 8.40

Exercise: Look up pIC50: CN(C)C/C=C/C(=O)N1CC2CC(n3nc(-c4ccc(C(=O)Nc5ccccn5)cc4)c4c(N)ncnc43)CC2C1 (stereo not shown)
Key: 8.85

***
Exercise: Look up pIC50: C=CC(=O)N1CC2CC(n3nc(-c4ccc5nc(OC)sc5c4)c4c(N)ncnc43)CC2C1 (stereo not shown)
Key: 7.60

Exercise: Look up pIC50: C=CC(=O)N1CC2CC(n3nc(-c4ccc(C(=O)Nc5nc6ccccc6s5)cc4)c4c(N)ncnc43)CC2C1 (stereo not shown)
Key: 6.44

###

tested_target: recombinant purified human BTK (Homo sapiens, UniProt Q06187)
experimental_details: In vitro BTK kinase assay on ADP Glo platform
run_parameters: 2 hr room temperature, read-out: In-vitro BTK inhibitory activity: IC50
Overview of reported IC50 across a group of molecules:
Lab book: enter the figure in nM, no units written.

Check out these entries, answers already filled in.
Exercise: Look up IC50: C=CC(=O)N1CC2CC(n3nc(-c4ccc(NC(=O)c5cnccn5)cc4)c4c(N)ncnc43)CC2C1 (stereo not shown)
Key: 1.2

Exercise: Look up IC50: C#CC(=O)N1CC2CC(n3nc(-c4ccc(Oc5ccccc5)cc4)c4c(N)ncnc43)CC2C1 (stereo not shown)
Key: 13

Exercise: Look up IC50: CN(C)C/C=C/C(=O)N1CC2CC(n3nc(-c4ccc(Oc5ccccn5)cc4)c4c(N)ncnc43)CC2C1 (stereo not shown)
Key: 3

Exercise: Look up IC50: C=CC(=O)N1CC2CC(n3nc(-c4ccc(/C(=N/c5cc(C)ccn5)OC)cc4)c4c(N)ncnc43)CC2C1 (stereo not shown)
Key: 3.5

Exercise: Look up IC50: CN(C)C/C=C/C(=O)N1CC2CC(n3nc(-c4ccc(Oc5cccnc5)cc4)c4c(N)ncnc43)CC2C1 (stereo not shown)
Key: 10

***
Exercise: Look up IC50: C=CC(=O)N1CC2CC(n3nc(-c4ccc(C(=O)N(C)c5cc(C)ccn5)cc4)c4c(N)ncnc43)CC2C1 (stereo not shown)
Key: 0.1

Exercise: Look up IC50: C=CS(=O)(=O)N1CC2CC(n3nc(-c4ccc(Oc5ccccc5)cc4)c4c(N)ncnc43)CC2C1 (stereo not shown)
Key: 218

###

tested_target: CYP 2C8 (Homo sapiens, UniProt P10632)
Construct: from tissue; host or cells: human liver microsomes
Sequence (P10632 whole entry): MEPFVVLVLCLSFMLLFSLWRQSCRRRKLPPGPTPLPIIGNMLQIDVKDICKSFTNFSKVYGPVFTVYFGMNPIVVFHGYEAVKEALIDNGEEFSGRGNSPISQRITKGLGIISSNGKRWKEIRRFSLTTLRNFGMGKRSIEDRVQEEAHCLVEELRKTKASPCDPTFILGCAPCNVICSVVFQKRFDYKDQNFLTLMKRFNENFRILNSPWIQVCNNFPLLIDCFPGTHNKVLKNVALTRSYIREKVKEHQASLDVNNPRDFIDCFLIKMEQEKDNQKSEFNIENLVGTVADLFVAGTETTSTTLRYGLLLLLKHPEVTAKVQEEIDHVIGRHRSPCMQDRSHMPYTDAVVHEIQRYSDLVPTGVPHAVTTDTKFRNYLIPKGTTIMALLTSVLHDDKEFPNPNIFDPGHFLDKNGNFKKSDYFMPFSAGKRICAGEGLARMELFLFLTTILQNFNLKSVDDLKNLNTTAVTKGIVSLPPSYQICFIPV
experimental_details: CYP inhibition in human liver microsomes, 2C8
Assay type: in vitro ADME
run_parameters: pH 7.4, @ 10 μM concn
readout_type: inhibition at 10 μM

Check out these entries, answers already filled in.
Exercise: Look up inhibition at 10 μM: CN(C)C/C=C/C(=O)N1CC2CC(n3nc(-c4ccc(C(=O)Nc5ccccn5)cc4)c4c(N)ncnc43)CC2C1 (centres unmarked) [Compound 44]
Key: < 50%

Exercise: Look up inhibition at 10 μM: C=CC(=O)N1CC2CC(N3C(=O)N(c4ccc(Oc5ccccc5)cc4)C4C(N)=NC=NC43)CC2C1 (centres unmarked) [Compound 25]
Key: < 50%

Exercise: Look up inhibition at 10 μM: C=CC(=O)N1CC2CC(n3nc(-c4ccc(NC(=O)c5ccccc5)cc4)c4c(N)ncnc43)CC2C1 (centres unmarked) [Compound 38]
Key: < 50%

Exercise: Look up inhibition at 10 μM: C=CC(=O)N1CC2CC(n3nc(-c4ccc5oc(-c6ccccc6)nc5c4)c4c(N)ncnc43)CC2C1 (centres unmarked) [Compound 23]
Key: > 50%

Exercise: Look up inhibition at 10 μM: C=CC(=O)N1CC2CN(CCn3nc(-c4ccc(Oc5ccccc5)cc4)c4c(N)ncnc43)CC2C1 (centres unmarked) [Compound 4]
Key: < 50%

Exercise: Look up inhibition at 10 μM: C=CC(=O)N1CC2CC(n3nc(-c4ccc5c(c4)oc4ccccc45)c4c(N)ncnc43)CC2C1 (centres unmarked) [Compound 8]
Key: < 50%

***
Exercise: Look up inhibition at 10 μM: CN(C)C/C=C/C(=O)N1CC2CC(n3nc(-c4ccc(-c5nnc(-c6ccccn6)o5)cc4)c4c(N)ncnc43)CC2C1 (centres unmarked) [Compound 57]
Key: > 50%

Exercise: Look up inhibition at 10 μM: C=CC(=O)N1CC2CC(n3nc(-c4ccc(NC(=O)c5ccccn5)cc4)c4c(N)ncnc43)CC2C1 (centres unmarked) [Compound 32]
Key: < 50%

Exercise: Look up inhibition at 10 μM: CN(C)C/C=C/C(=O)N1CC2CC(n3nc(-c4ccc(Oc5ccccc5)cc4)c4c(N)ncnc43)CC2C1 (centres unmarked) [Compound 24]
Key: < 50%

Exercise: Look up inhibition at 10 μM: C=CC(=O)N1CC2CN(c3ccc(Cn4nc(-c5ccc(Oc6ccccc6)cc5)c5c(N)ncnc54)cn3)CC2C1 (centres unmarked) [Compound 3]
Key: < 50%

Exercise: Look up inhibition at 10 μM: C=CC(=O)N1CC2CC(n3nc(-c4ccc5ocnc5c4)c4c(N)ncnc43)CC2C1 (centres unmarked) [Compound 22]
Key: < 50%

Exercise: Look up inhibition at 10 μM: N#C/C(=C\C1CC1)C(=O)N1CC2CC(n3nc(-c4ccc(Oc5ccccc5)cc4)c4c(N)ncnc43)CC2C1 (centres unmarked) [Compound 28]
Key: < 50%

Exercise: Look up inhibition at 10 μM: C=CC(=O)N1CC2CC(n3nc(-c4ccc(-c5cnn(C)c5)cc4)c4c(N)ncnc43)CC2C1 (centres unmarked) [Compound 21]
Key: < 50%

Exercise: Look up inhibition at 10 μM: C=CC(=O)N1CC2CC(n3nc(-c4ccc(Oc5ccccc5)cc4)c4c(N)ncnc43)CC2C1 (centres unmarked) [Compound 1]
Key: < 50%

Exercise: Look up inhibition at 10 μM: Cc1ccnc(N(C)C(=O)c2ccc(-c3nn(C4CC5CN(C(=O)/C=C/CN(C)C)CC5C4)c4ncnc(N)c34)cc2)c1 (centres unmarked) [Compound 55]
Key: > 50%

Exercise: Look up inhibition at 10 μM: C=CC(=O)N1CC2CC(n3nc(-c4ccc(Oc5cccnc5)cc4)c4c(N)ncnc43)CC2C1 (centres unmarked) [Compound 52]
Key: < 50%

Exercise: Look up inhibition at 10 μM: C=CC(=O)N1CC2CC(n3nc(-c4ccc5c(c4)CCS5)c4c(N)ncnc43)CC2C1 (centres unmarked) [Compound 7]
Key: < 50%

Exercise: Look up inhibition at 10 μM: C=CC(=O)N1CC2CC(n3nc(-c4ccc(Oc5ccccn5)cc4)c4c(N)ncnc43)CC2C1 (centres unmarked) [Compound 43]
Key: < 50%

Exercise: Look up inhibition at 10 μM: CN(C)C/C=C/C(=O)N1CC2CC(n3nc(-c4ccc(C(=O)Nc5cnccn5)cc4)c4c(N)ncnc43)CC2C1 (centres unmarked) [Compound 49]
Key: < 50%

Exercise: Look up inhibition at 10 μM: C=CC(=O)N1CC2CC(n3nc(-c4ccc(C(=O)Nc5nc6ccccc6s5)cc4)c4c(N)ncnc43)CC2C1 (centres unmarked) [Compound 34]
Key: < 50%

Exercise: Look up inhibition at 10 μM: CN(C)C/C=C/C(=O)N1CC2CC(n3nc(-c4ccc(C(=O)Nc5cc(C(F)(F)F)ccn5)cc4)c4c(N)ncnc43)CC2C1 (centres unmarked) [Compound 51]
Key: > 50%

Exercise: Look up inhibition at 10 μM: C=CS(=O)(=O)N1CC2CC(n3nc(-c4ccc(Oc5ccccc5)cc4)c4c(N)ncnc43)CC2C1 (centres unmarked) [Compound 18]
Key: > 50%

Exercise: Look up inhibition at 10 μM: C=CC(=O)N1CC2CC(n3nc(-c4ccc5sccc5c4)c4c(N)ncnc43)CC2C1 (centres unmarked) [Compound 6]
Key: < 50%

Exercise: Look up inhibition at 10 μM: C=CC(=O)N1CC2CC(n3nc(-c4ccc(-c5nnc(C)o5)cc4)c4c(N)ncnc43)CC2C1 (centres unmarked) [Compound 16]
Key: < 50%

Exercise: Look up inhibition at 10 μM: C=CC(=O)N1CC2CC(n3nc(-c4ccc(C(=O)Nc5cnccn5)cc4)c4c(N)ncnc43)CC2C1 (centres unmarked) [Compound 37]
Key: < 50%

Exercise: Look up inhibition at 10 μM: C=CC(=O)N1CC2CC(n3nc(-c4ccc(C(=O)Nc5cc(C)ccn5)cn4)c4c(N)ncnc43)CC2C1 (centres unmarked) [Compound 42]
Key: < 50%

Exercise: Look up inhibition at 10 μM: C=CC(=O)N1CC2CC(n3nc(-c4ccc5ncsc5c4)c4c(N)ncnc43)CC2C1 (centres unmarked) [Compound 2]
Key: < 50%

Exercise: Look up inhibition at 10 μM: C=CC(=O)N1CC2CC(n3nc(-c4ccc5nc(-c6ccccc6)oc5c4)c4c(N)ncnc43)CC2C1 (centres unmarked) [Compound 19]
Key: < 50%

Exercise: Look up inhibition at 10 μM: C=CC(=O)N1CC2CC(n3c(Br)c(-c4ccc(Oc5ccccc5)cc4)c4c(N)ncnc43)CC2C1 (centres unmarked) [Compound 27]
Key: < 50%
